Data provenance: PubChem BioAssay AID493115

target: Caspase-7 (Homo sapiens) (UniProt P55210); assay: activation of procaspase-7 enzyme – biochemical, absorbance, human, dual procaspase-3/-7 activator project, confirmation (AID 493115); conditions: recombinant procaspase-7, Ac-DEVD-pNA absorbance 405 nm; at 8.5 µM; stronger effect = higher value; D23A/D198A/D206A mutant that cannot self-cleave;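 also: 0% = DMSO only and 100% = DMSO with added 5 µM PC-7 enzyme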
Sequence (P55210 whole entry D23A/D198A/D206A): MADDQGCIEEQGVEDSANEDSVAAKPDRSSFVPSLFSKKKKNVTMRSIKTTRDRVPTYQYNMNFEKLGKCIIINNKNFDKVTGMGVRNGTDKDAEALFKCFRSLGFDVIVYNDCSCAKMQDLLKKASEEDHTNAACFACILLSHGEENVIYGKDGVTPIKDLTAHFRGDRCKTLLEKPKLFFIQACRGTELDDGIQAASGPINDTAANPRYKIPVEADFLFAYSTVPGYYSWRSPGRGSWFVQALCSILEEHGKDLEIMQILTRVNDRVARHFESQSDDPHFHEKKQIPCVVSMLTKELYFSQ
The other results are listed elsewhere or left out.
readout_kind: activation (%)
Output spec: scalar in %, unitless text.

Fill in: activation of Nc1cccc2c1C(=O)N(Cc1nnc(-c3ccccc3Br)o1)C2=O is ___
-35.8

What do we get for O=C1OCCN1C(=O)[C@H]1[C@H](c2ccc(F)cc2)C(c2ccccc2)=NN1c1ccc(Br)cc1 ?
-35.1

What do we get for COc1ccc2sc(-c3ccc(S(C)(=O)=O)cc3)c(C#Cc3cncn3C)c2c1 ?
-34.2

What do we get for CNS(=O)(=O)c1cccc(C(=O)NC2CCCc3ccccc32)c1 (stereo not given) ?
0.28

What do we get for CC1(C)Cc2c(C#N)c(SCc3nc4ccccc4[nH]3)nc(N3CCOCC3)c2CO1 ?
-34.3

What do we get for COc1ccc(-c2onc3ccc(C(C)=O)cc23)cc1 ?
-35.4

What do we get for Fc1ccc(N2N=C(c3cccs3)CC2c2ccco2)c(F)c1 (stereo not given) ?
-34.9

What do we get for COc1ccc(Nc2ncc(C(=O)N3CCN(c4ccccc4OC)CC3)c3ccccc23)cc1 ?
2.22

What do we get for CC(=O)Oc1ccc2c(C)c(CC(C)O)c(=O)oc2c1 (stereo not given) ?
-34

What do we get for CCOC(=O)C1(CCOC)CCN(Cc2cc3ccccc3s2)CC1 ?
2.06
